- System: K4 kissing-loop RNA reporter;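 also: bound reporter read as fluorescence of individual clusters on recovered sequencing chips by microscopy, with normalized cluster intensities fitted with a binding model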
- PROTOCOL DESCRIPTION: apparent KD of K4 kissing-loop reporter; higher = weaker reporter binding
- ASSAY SETUP: Eterna round: R107; input ligand: FMN 200 uM
QUANTITY KIND: apparent KD of K4 kissing-loop reporter (nM)
Write the number in nM without appending the unit.

Here is how some sequences turned out for apparent KD of K4 kissing-loop reporter.
For GAUUUAGAGGCGGCCGCCACUAGUGAUGUUAGUGAUGUUUGAUACUGUAUAUAUCGGCGUGUAGAUAGGACCGGGCCUGAUGGAG [drrdmullin] on K4 kissing-loop RNA reporter, measured apparent KD of K4 kissing-loop reporter was 259

For GGCUCCUACGGAGGAUAUAGUAGCCCAGAGUGAUGUUCUAGGGUGUUUUCCGAUUUAGUCAUUGUUCUAGAAGGCCGUAGGAGCC on K4 kissing-loop RNA reporter, measured apparent KD of K4 kissing-loop reporter was 266

For GCUCAGGAGUGAUGUUCCUAGUGAUGUUAACGAGGACCGGUACGGCCGCCACUCGAUACGGCCGGACCGUAGGAUAAACUAGAGC [Same State - Tryptophan A (Freestyle 10)] on K4 kissing-loop RNA reporter, measured apparent KD of K4 kissing-loop reporter was 292

For GCAUCCAUGGCAGGAUAUAGGUUCGUGGAGUGAUGUUCCAUAGCCCGAGUGAUGUUCGUUAUCCGCCUAGAAGGGCCAUGGAUGC [whbob_Ex_FMNB__2th213] on K4 kissing-loop RNA reporter, measured apparent KD of K4 kissing-loop reporter was 247

For AAUGUGCAGGGAAGGAGCGUAGUCCAGUGCUGUUGGAGUUAGAUACCAGUGAUGUUGGUUAUACAGGUAGGUCGCCCUAAAGCGC [whbob_Ex_Arginine_B_2th161] on K4 kissing-loop RNA reporter, measured apparent KD of K4 kissing-loop reporter was 139

For AUUAAUAACUGAGGAUAUCGUUUUACUGUAGUGAUGUUACAGAAAGUUCAAAUUAUAAUUUCUAUUCGAGAAGGCAGAAUAAUUA [JR_SSFMNB_Sub026] on K4 kissing-loop RNA reporter, measured apparent KD of K4 kissing-loop reporter was 77.7

For AGAUGACACGGAGGAUAUCCUAAUAUGGGUGAUGUUAGCGAUGUUGAAGGUGUAGUGAUGUUAUGCGGAGAAGGCCGUGUUGUUU [BDazzled - #22 - Exc. FMN B] on K4 kissing-loop RNA reporter, measured apparent KD of K4 kissing-loop reporter was 103

For AUGUCUGAUAGCAGUGAUGUUGCUUCGGAUACCAGACGAGAUCAUGUCCCUUGGCAGCUGACACGGCACGUGCUAGGUUAGAUGA [whbob_Ex_Theo_A_th72] on K4 kissing-loop RNA reporter, measured apparent KD of K4 kissing-loop reporter was 121

For CGAUCUGAUAGCAGUGAUGUUGCUACAGAUACCAGUCCAGAUCGAGACCCUUGGCAGCUGACCCGGCAUGUGCUAUGGUAGAUCG [Theo A Ex t1] on K4 kissing-loop RNA reporter, measured apparent KD of K4 kissing-loop reporter was 156

For AAAAGCCUACAGGAUACCAGCCGAAUACUAAAAGGCUGGAGUGAUGUUCCAGCUUGCCGCGGCCCUUGGCAGCCUAGCUGGGUGA [Soatriti] on K4 kissing-loop RNA reporter, measured apparent KD of K4 kissing-loop reporter was 248

***
For UUCCACCGAGAAGGAUAUUAUGCUGGACUUGUUUAAGUGUUAAAUAGUGAUGUUAUUUGAUCGGAAUAAGAAGGUCUCAAGUUGA [theeternabot_sameState_KL_FMN_B_44] on K4 kissing-loop RNA reporter, measured apparent KD of K4 kissing-loop reporter was 155

For AAGUUGAACUGAAGGAGCGAGAAAUAGAAUGUAAGAAUAUAUGCUAGUGAUGUUAGAAAUUCUCAGGUAGGUCGCAGUAAGUUUU [V2] on K4 kissing-loop RNA reporter, measured apparent KD of K4 kissing-loop reporter was 363

Attribution: the supplement of paper PMC9170038
